Please provide measured log10 IC50 at 72 h for the entries that follow.
METHOD DESCRIPTION: Cytotoxicity against human L02 cells incubated for 72 hrs by MTT assay
Type: toxicity, cell-based
Heads up, the numbers here are log10 of IC50 at 72 h in nM units.

Per the records, this compound ( CC(C)[C@]12O[C@H]1[C@@H]1O[C@]13[C@]1(O[C@H]1C[C@H]1C4=C(CC[C@@]13C)C(=O)OC4)[C@@H]2OC(=O)CCC(=O)O[C@H]1C(O)O[C@H](CO)[C@@H](O)[C@@H]1O (some centres not stated) ) has log10 IC50 at 72 h equal to 3.12

Entry CC(C)[C@]12O[C@H]1[C@@H]1O[C@]13[C@]1(O[C@H]1C[C@H]1C4=C(CC[C@@]13C)C(=O)OC4)[C@@H]2OC(=O)CCC(=O)O[C@H]1[C@H](O)[C@@H](O)C(O)O[C@@H]1CO (some centres not stated) , log10 IC50 at 72 h reported as 3.26

Looking up CC(C)[C@]12O[C@H]1[C@@H]1O[C@]13[C@]1(O[C@H]1C[C@H]1C4=C(CC[C@@]13C)C(=O)OC4)[C@@H]2OC(=O)CCC(=O)O[C@H]1[C@H](O)[C@@H](CO)OC(O)[C@@H]1O (some centres not stated) , I found its log10 IC50 at 72 h recorded as 3.14

Noted for CC(C)[C@]12O[C@H]1[C@@H]1O[C@]13[C@]1(O[C@H]1C[C@H]1C4=C(CC[C@@]13C)C(=O)OC4)[C@@H]2OC(=O)CCC(=O)OC[C@H]1OC(O)[C@H](O)[C@@H](O)[C@@H]1O (some centres not stated) : its log10 IC50 at 72 h reads 3.15

Form: compound = CC(C)[C@]12O[C@H]1[C@@H]1O[C@]13[C@]1(O[C@H]1C[C@H]1C4=C(CC[C@@]13C)C(=O)OC4)[C@@H]2OC(=O)CCC(=O)O[C@@H]1O[C@H](CO)[C@@H](O)[C@H](O)[C@H]1O ; log10 IC50 at 72 h = 3.14

// CC(C)[C@]12O[C@H]1[C@@H]1O[C@]13[C@]1(O[C@H]1C[C@H]1C4=C(CC[C@@]13C)C(=O)OC4)[C@@H]2OC(=O)CCC(=O)O[C@H]1O[C@H](CO)[C@@H](O)[C@H](O)[C@H]1O : log10 IC50 at 72 h value = 3.33

The recorded log10 IC50 at 72 h for CC(C)[C@]12O[C@H]1[C@@H]1O[C@]13[C@]1(O[C@H]1C[C@H]1C4=C(CC[C@@]13C)C(=O)OC4)[C@@H]2O [TRIPTOLIDE] is 1.20
